experiment: Docetaxel plasma pharmacokinetics in patients; format: in vivo; conditions: human, plasma, intravenous
observable: AUC(0-t) (µg·h/mL)

{"molecular_string": "CC(=O)O[C@@]12CO[C@@H]1C[C@H](O)[C@@]1(C)C(=O)[C@H](O)C3=C(C)[C@@H](OC(=O)[C@H](O)[C@@H](NC(=O)OC(C)(C)C)c4ccccc4)C[C@@](O)([C@@H](OC(=O)c4ccccc4)[C@H]21)C3(C)C", "observable": "AUC(0-t)", "display_unit": "µg·h/mL", "recorded_measurement": 0.851}

====

test: Docetaxel plasma pharmacokinetics in patients; type: in vivo; conditions: human, plasma, intravenous, AUCINF, C2D1 (with PX-866), mean, N=35, plasma

{"molecular_string": "CC(=O)O[C@@]12CO[C@@H]1C[C@H](O)[C@@]1(C)C(=O)[C@H](O)C3=C(C)[C@@H](OC(=O)[C@H](O)[C@@H](NC(=O)OC(C)(C)C)c4ccccc4)C[C@@](O)([C@@H](OC(=O)c4ccccc4)[C@H]21)C3(C)C", "AUC(0-inf) / ng·h/mL": 1110}
